Taken from the supplement of paper PMC10307832.

Tested on: COR-L 105
Assay: relative viability (nuclei count vs DMSO), 5 days (fraction); higher = more cells survive
Conditions: first compound 1.265 µM
Task for the reader: assign each of the following compounds its reported relative viability.
One number for each entry.

1) COc1cc(N2CCC(C(N)=O)CC2)ccc1Nc1nc(N)c(Cl)c(Nc2ccccc2S(=O)(=O)C(C)C)n1 [HG-5-88-01] + CC1(C)CCC(c2ccc(Cl)cc2)=C(CN2CCN(c3ccc(C(=O)NS(=O)(=O)c4ccc(N[C@H](CCN5CCOCC5)CSc5ccccc5)c(S(=O)(=O)C(F)(F)F)c4)cc3)CC2)C1 [Navitoclax] (partner 0.5 µM) :: 0.645

Now consider a different compound.
Asked: What is its relative viability for COR-L 105? Entry: COc1cc(N2CCC(C(N)=O)CC2)ccc1Nc1nc(N)c(Cl)c(Nc2ccccc2S(=O)(=O)C(C)C)n1 [HG-5-88-01] + CC(=O)c1c(C)c2cnc(Nc3ccc(N4CCNCC4)cn3)nc2n(C2CCCC2)c1=O [Palbociclib] (partner 0.5 µM)
Given back: 0.403

###

Test system: LU99A
Assay: relative viability (nuclei count vs DMSO), 5 days (fraction); higher = more cells survive
Conditions: first compound 0.1265 µM
metric: relative viability
Give bare numbers.

1. C[C@@H]1CN(CC(=O)Nc2ccc3c(c2)Cc2cccc(-c4cc(=O)cc(N5CCOCC5)o4)c2S3)C[C@H](C)O1 + Cc1nc(Nc2ncc(C(=O)Nc3c(C)cccc3Cl)s2)cc(N2CCN(CCO)CC2)n1 [Dasatinib] (partner 0.075 µM) :: 0.491

Now consider a different molecule.
Asked: Sample Clc1ccc(Nc2nnc(Cc3ccncc3)c3ccccc23)cc1 [Vatalanib] + Cc1nc(NC(=O)N2CCC[C@H]2C(N)=O)sc1-c1ccnc(C(C)(C)C(F)(F)F)c1 [Alpelisib] (partner 2 µM) — what was its relative viability?
Given back: 0.514

###

System: ABC-1
Experiment: relative viability (nuclei count vs DMSO), 5 days (fraction); higher = more cells survive
Conditions: first compound 2.53 µM
metric: relative viability
One number for each entry.

Example results:
1. CCCCCCCCCCCC1=C(O)C(=O)C=C(O)C1=O [Embelin] + CC(C)C[C@H](NC(=O)[C@H](Cc1ccccc1)NC(=O)c1cnccn1)B(O)O [Bortezomib] (partner 0.002 µM) :: 0.252
2. CCCCCCCCCCCC1=C(O)C(=O)C=C(O)C1=O [Embelin] + CCNC(=O)c1noc(-c2cc(C(C)C)c(O)cc2O)c1-c1ccc(CN2CCOCC2)cc1 [Luminespib] (partner 0.01 µM) :: 0.913
3. CCCCCCCCCCCC1=C(O)C(=O)C=C(O)C1=O [Embelin] + Cc1cc(Nc2cc(N3CCN(C)CC3)nc(Sc3ccc(NC(=O)C4CC4)cc3)n2)n[nH]1 [Tozasertib] (partner 0.1 µM) :: 0.181
4. CCCCCCCCCCCC1=C(O)C(=O)C=C(O)C1=O [Embelin] + C[C@]1(O)C[C@@H](c2nc(-c3ccc4ccc(-c5ccccc5)nc4c3)c3c(N)nccn32)C1 [Linsitinib] (partner 1 µM) :: 0.772

Now consider a different molecule.
Asked: Sample CCCCCCCCCCCC1=C(O)C(=O)C=C(O)C1=O [Embelin] + CS(=O)(=O)N1CCN(Cc2cc3nc(-c4cccc5[nH]ncc45)nc(N4CCOCC4)c3s2)CC1 [Pictilisib] (partner 1 µM) — what was its relative viability?
Given back: 0.678

###

Test system: EMC-BAC-2
Test: relative viability (nuclei count vs DMSO), 5 days (fraction); higher = more cells survive
Conditions: first compound 0.4 µM
metric: relative viability
Answers are plain numbers.

Example results:
1. COc1cc(N2CCC(C(N)=O)CC2)ccc1Nc1nc(N)c(Cl)c(Nc2ccccc2S(=O)(=O)C(C)C)n1 [HG-5-88-01] + Cc1nc(NC(=O)N2CCC[C@H]2C(N)=O)sc1-c1ccnc(C(C)(C)C(F)(F)F)c1 [Alpelisib] (partner 2 µM) :: 0.723
2. C[C@@H]1CN(CC(=O)Nc2ccc3c(c2)Cc2cccc(-c4cc(=O)cc(N5CCOCC5)o4)c2S3)C[C@H](C)O1 + CC(C)C[C@H](NC(=O)[C@H](Cc1ccccc1)NC(=O)c1cnccn1)B(O)O [Bortezomib] (partner 0.002 µM) :: 1.06
3. Clc1ccc(Nc2nnc(Cc3ccncc3)c3ccccc23)cc1 [Vatalanib] + CC(=O)Nc1cccc(-n2c(=O)n(C3CC3)c(=O)c3c(Nc4ccc(I)cc4F)n(C)c(=O)c(C)c32)c1 [Trametinib] (partner 0.02 µM) :: 0.908

Now consider a different compound.
Asked: Sample COc1cc(N2CCC(C(N)=O)CC2)ccc1Nc1nc(N)c(Cl)c(Nc2ccccc2S(=O)(=O)C(C)C)n1 [HG-5-88-01] + O=C(CCCCCCC(=O)Nc1ccccc1)NO [Vorinostat] (partner 1 µM) — what was its relative viability?
Given back: 0.354

###

Tested on: NCI-H1395
Test: relative viability (nuclei count vs DMSO), 5 days (fraction); higher = more cells survive
Settings: first compound 0.1265 µM
Task for the reader: assign each of the following compounds its reported relative viability.
Numbers only.

1) Clc1ccc(Nc2nnc(Cc3ccncc3)c3ccccc23)cc1 [Vatalanib] + CC1(C)CCC(c2ccc(Cl)cc2)=C(CN2CCN(c3ccc(C(=O)NS(=O)(=O)c4ccc(N[C@H](CCN5CCOCC5)CSc5ccccc5)c(S(=O)(=O)C(F)(F)F)c4)cc3)CC2)C1 [Navitoclax] (partner 0.5 µM) :: 1.07

Now consider a different compound.
Asked: Sample Clc1ccc(Nc2nnc(Cc3ccncc3)c3ccccc23)cc1 [Vatalanib] + Nc1ncn([C@H]2C[C@H](O)[C@@H](CO)O2)c(=O)n1 [Decitabine] (partner 2 µM) — what was its relative viability?
Given back: 0.702

###

Tested on: ABC-1
Experiment: relative viability (nuclei count vs DMSO), 5 days (fraction); higher = more cells survive
Details: first compound 0.4 µM
Task for the reader: assign each of the following compounds its reported relative viability.
Numbers only.

Example results:
1) Clc1ccc(Nc2nnc(Cc3ccncc3)c3ccccc23)cc1 [Vatalanib] + Cc1nc(NC(=O)N2CCC[C@H]2C(N)=O)sc1-c1ccnc(C(C)(C)C(F)(F)F)c1 [Alpelisib] (partner 2 µM) :: 1.2
2) COc1cc(N2CCC(C(N)=O)CC2)ccc1Nc1nc(N)c(Cl)c(Nc2ccccc2S(=O)(=O)C(C)C)n1 [HG-5-88-01] + CS(=O)(=O)CCNCc1ccc(-c2ccc3ncnc(Nc4ccc(OCc5cccc(F)c5)c(Cl)c4)c3c2)o1 [Lapatinib] (partner 2 µM) :: 0.996

Kindly give each listed record's relative viability.
1. COc1cc(N2CCC(C(N)=O)CC2)ccc1Nc1nc(N)c(Cl)c(Nc2ccccc2S(=O)(=O)C(C)C)n1 [HG-5-88-01] + CC(C)C[C@H](NC(=O)[C@H](Cc1ccccc1)NC(=O)c1cnccn1)B(O)O [Bortezomib] (partner 0.002 µM)
2. Clc1ccc(Nc2nnc(Cc3ccncc3)c3ccccc23)cc1 [Vatalanib] + O=C(CCCCCCC(=O)Nc1ccccc1)NO [Vorinostat] (partner 1 µM)
3. COc1cc(N2CCC(C(N)=O)CC2)ccc1Nc1nc(N)c(Cl)c(Nc2ccccc2S(=O)(=O)C(C)C)n1 [HG-5-88-01] + Cc1cc(Nc2cc(N3CCN(C)CC3)nc(Sc3ccc(NC(=O)C4CC4)cc3)n2)n[nH]1 [Tozasertib] (partner 0.1 µM)
4. COc1cc(N2CCC(C(N)=O)CC2)ccc1Nc1nc(N)c(Cl)c(Nc2ccccc2S(=O)(=O)C(C)C)n1 [HG-5-88-01] + COc1cccc2cc(-c3nc([C@H]4CC[C@H](C(=O)O)CC4)n4ncnc(N)c34)[nH]c12 [OSI-027] (partner 0.5 µM)

Given back:
0.237
1.01
0.172
0.399

Kindly give each listed record's relative viability.
1. C[C@@H]1CN(CC(=O)Nc2ccc3c(c2)Cc2cccc(-c4cc(=O)cc(N5CCOCC5)o4)c2S3)C[C@H](C)O1 + CCNC(=O)c1noc(-c2cc(C(C)C)c(O)cc2O)c1-c1ccc(CN2CCOCC2)cc1 [Luminespib] (partner 0.01 µM)
2. Clc1ccc(Nc2nnc(Cc3ccncc3)c3ccccc23)cc1 [Vatalanib] + C[C@@H](Oc1cc(-c2cnn(C3CCNCC3)c2)cnc1N)c1c(Cl)ccc(F)c1Cl [Crizotinib] (partner 1 µM)
3. C[C@@H]1CN(CC(=O)Nc2ccc3c(c2)Cc2cccc(-c4cc(=O)cc(N5CCOCC5)o4)c2S3)C[C@H](C)O1 + N=C(N)NC(=N)NCCc1ccccc1 [Phenformin] (partner 250 µM)
4. C[C@@H]1CN(CC(=O)Nc2ccc3c(c2)Cc2cccc(-c4cc(=O)cc(N5CCOCC5)o4)c2S3)C[C@H](C)O1 + Cc1nc(NC(=O)N2CCC[C@H]2C(N)=O)sc1-c1ccnc(C(C)(C)C(F)(F)F)c1 [Alpelisib] (partner 2 µM)
5. Clc1ccc(Nc2nnc(Cc3ccncc3)c3ccccc23)cc1 [Vatalanib] + CS(=O)(=O)CCNCc1ccc(-c2ccc3ncnc(Nc4ccc(OCc5cccc(F)c5)c(Cl)c4)c3c2)o1 [Lapatinib] (partner 2 µM)
6. C[C@@H]1CN(CC(=O)Nc2ccc3c(c2)Cc2cccc(-c4cc(=O)cc(N5CCOCC5)o4)c2S3)C[C@H](C)O1 + NC(=O)Nc1cc(-c2cccc(F)c2)sc1C(=O)N[C@H]1CCCNC1 [AZD7762] (partner 0.2 µM)

Given back:
[0.633, 1.37, 0.273, 0.872, 1.16, 1.52]

Asked: Sample C[C@@H]1CN(CC(=O)Nc2ccc3c(c2)Cc2cccc(-c4cc(=O)cc(N5CCOCC5)o4)c2S3)C[C@H](C)O1 + Nc1ncn([C@H]2C[C@H](O)[C@@H](CO)O2)c(=O)n1 [Decitabine] (partner 2 µM) — what was its relative viability?
Given back: 0.947
